biological target: monoclonal antibody 4C3 (anti-Bla g 2); assay: competition ELISA; details: chain shown with the change; competitor concentration 0.1 µg/ml; solid phase rBla g 2-N93Q; parent: est. 82; read off a plot
Sequence (chain, as listed by the source, chain 1 of 2): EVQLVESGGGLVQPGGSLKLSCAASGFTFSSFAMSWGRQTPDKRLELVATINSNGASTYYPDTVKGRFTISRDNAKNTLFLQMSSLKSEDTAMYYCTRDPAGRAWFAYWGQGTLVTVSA
Sequence (chain, as listed by the source, chain 2 of 2): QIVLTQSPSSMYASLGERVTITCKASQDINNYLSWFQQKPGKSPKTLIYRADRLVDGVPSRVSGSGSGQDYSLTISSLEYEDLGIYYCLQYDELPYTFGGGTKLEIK
Measurement Name: other: Biotinylated mAb 4C3 bound to Bla g 2 (%)

Binder	Readout Units	Data Value
recombinant Bla g 2-N93Q K251A (protein) VPLYKLVHVFINTQYAGITKIGNQNFLTVFDSTSCNVVVASQECVGGACVCPNLQKYEKLKPKYISDGNVQVKFFDTGSAVGRGIEDSLTISQLTTSQQDIVLADELSQEVCILSADVVVGIAAPGCPNALKGKTVLENFVEENLIAPVFSIHHARFQDGEHFGEIIFGGSDWKYVDGEFTYVPLVGDDSWKFRLDGVKIGDTTVAPAGTQAIIDTSKAIIVGPKAYVNPINEAIGCVVEKTTTRRICKLDCSAIPSLPDVTFVINGRNFNISSQYYIQQNGNLCYSGFQPCGHSDHFFIGDFFVDHYYSEFNWENKTMGFGRSVESV	%	100
